# testSummary: Long-term/accelerated stability of crystal forms
# Assay type: physicochemical
# conditions: 25 °C/60% RH, 14 days, sealed in aluminum foil bag
# Procedure: Free-state samples were sealed in aluminum foil bags and left to stand under 25 °C/60% RH and 40 °C/75% RH conditions to test their stability.
So I've got a bunch of compounds here, and I need their Purity% values.
Numeric only. Scale: %

Please report the recorded Purity% for C[C@H]1COc2c(-c3nc(N[C@@H]4CCOC[C@H]4O)ncc3Cl)cc(F)c3nc(C(C)(C)O)n1c23 [Free-state amorphous form] .
99.0

Please report the recorded Purity% for C[C@H]1COc2c(-c3nc(N[C@@H]4CCOC[C@H]4O)ncc3Cl)cc(F)c3nc(C(C)(C)O)n1c23 [Crystal form D] .
99.9

Please report the recorded Purity% for C[C@H]1COc2c(-c3nc(N[C@@H]4CCOC[C@H]4O)ncc3Cl)cc(F)c3nc(C(C)(C)O)n1c23 [Crystal form F] .
99.9

Please report the recorded Purity% for C[C@H]1COc2c(-c3nc(N[C@@H]4CCOC[C@H]4O)ncc3Cl)cc(F)c3nc(C(C)(C)O)n1c23 [Crystal form G] .
99.9

Please report the recorded Purity% for C[C@H]1COc2c(-c3nc(N[C@@H]4CCOC[C@H]4O)ncc3Cl)cc(F)c3nc(C(C)(C)O)n1c23 [Crystal form H] .
99.95

Please report the recorded Purity% for C[C@H]1COc2c(-c3nc(N[C@@H]4CCOC[C@H]4O)ncc3Cl)cc(F)c3nc(C(C)(C)O)n1c23 [Crystal form E] .
99.9
